target entity: Sigma intracellular receptor 2 (Homo sapiens) (UniProt Q5BJF2)
Sequence (Q5BJF2 whole entry): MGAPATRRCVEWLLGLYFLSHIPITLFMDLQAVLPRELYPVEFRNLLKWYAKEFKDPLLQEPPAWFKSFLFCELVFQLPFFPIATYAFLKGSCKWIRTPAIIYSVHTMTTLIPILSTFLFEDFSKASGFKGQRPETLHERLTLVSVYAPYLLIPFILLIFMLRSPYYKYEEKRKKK
experimental parameters: Compound concentration 10 µM
Description: PDSP Primary Binding target: TMEM97 - Compounds are tested at 10 uM concentration, plate are incubated at room temperature in the dark for 90 minutes. Reaction are stopped by vacuum filtration onto 0.3% polyethyleneimine soaked filter mats using Filtermate harvester. Scintilation cocktail is then melted onto microwave-dried filters on a hot plate and the radio activity is counted in Microbia counter.
Values of inhibition greater than or equal to 30% map to class 1; values below map to class 0.

compound	class label
Cc1ccc2c(c1)c1c(n2CCc2ccc(C)nc2)CCN(C)C1	class 1
CN(C)S(=O)(=O)c1ccc(NC(=S)N2CCC(C(O)(c3ccccc3)c3ccccc3)CC2)cc1	class 1
CCCCc1nc(Cl)c(CO)n1Cc1ccc(-c2ccccc2-c2nnn[nH]2)cc1	class 0
Clc1cccc(COc2cncc(N3CCNCC3)n2)c1	class 1
Cc1cc(C)c(N)c(C#Cc2cccc(F)c2)n1	class 0
Cc1ccccc1C(=O)Nc1ccc(C(=O)N2CCCC(O)c3cc(Cl)ccc32)c(C)c1 (centres undefined)	class 1
COc1ccc(/C=C/CCCCOc2ccc(C(=O)c3cccc(C(=O)O)c3)cc2CCC(=O)O)cc1	class 0
COC(=O)[C@H]1[C@H]2C[C@H]3c4[nH]c5ccccc5c4CCN3C[C@H]2CC[C@@H]1O	class 0
Nc1nc(NCCc2ccc(O)cc2)nc2nc(-c3ccco3)nn12	class 1
CN1CC(=O)N=C1NC(=O)Nc1cccc(Cl)c1	class 0
c1ccc(N2CCN(Cc3nc4ccccc4[nH]3)CC2)nc1	class 0
C[C@@H](NCCc1ccc(O)cc1)[C@@H](O)c1ccc(O)cc1 (relative stereo)	class 1
CCc1cc2c(cc1CC)CC(NC[C@H](O)c1ccc(O)c3[nH]c(=O)ccc13)C2	class 1

====

target entity: Beta-2 adrenergic receptor (Homo sapiens)
experimental parameters: Compound concentration 10 µM; call rule not given here
Classes used: active, inactive

compound	class label
CCc1cc2c(c(CC)n1)CCC(=O)N2Cc1ccc(-c2ccccc2-c2nnn[nH]2)cc1	inactive
Clc1ccc(CCCOCCCN2CCCCC2)cc1	inactive
COc1ccc(CNC(=O)c2cc(-c3cncc(Cl)c3)cnc2-c2ccccn2)nc1OC	inactive
Cc1cn2cc(CC(=O)N3CCC4(CC3)CN(Cc3ccc(-n5nccn5)cc3Cl)C4)nc2s1	active
CN(C)C(=O)N[C@H]1CC[C@H](CCN2CCN(c3cccc(Cl)c3Cl)CC2)CC1	inactive
C[N+]1(C)[C@@H]2C[C@@H](OC(=O)C(O)(c3cccs3)c3cccs3)C[C@H]1[C@@H]1O[C@@H]12	inactive
Cc1csc(NC(=O)c2cc(F)cc(Oc3cncnc3)c2)n1	inactive
O=C(Cc1ccc(Cl)c(Cl)c1)N1CCCC[C@H]1CN1CCCC1	inactive
CN1CCN(c2ccc(Nc3c4ccccc4nc4ccccc34)cc2)CC1	active
CN1CC(=O)N=C1NC(=O)Nc1cccc(Cl)c1	inactive
CC(C)NCC(O)c1ccc(N)c(C#N)c1 (stereo unspecified)	active
NCCc1cn(S(=O)(=O)c2c(Cl)nc3sccn23)c2ccccc12	inactive
CN1CCC(=C2c3ccccc3CC(=O)c3sccc32)CC1	inactive
Cc1nc(-c2ccc(C(F)(F)F)cc2)sc1COc1ccc([C@H](CC(=O)O)c2ccon2)cc1	inactive
Cc1cc(C(=O)N2Cc3cnn(C)c3Nc3ccccc32)ccc1CNC(=O)N1CCC[C@H]1C(=S)N1CCCN(C)CC1	inactive
C[C@@H](NCCCc1cccc(C(F)(F)F)c1)c1cccc2ccccc12	inactive
O=C(c1cc2c(cc1F)OC(c1ccc(F)cc1)(c1ccc(Cl)cc1Cl)O2)N1CCOCC1 (stereo unspecified)	inactive
N#Cc1c(N)nc(SCc2csc(-c3ccc(Cl)cc3)n2)c(C#N)c1-c1ccc(OCCO)cc1	inactive
CCC(=O)NCC[C@@H]1CCc2ccc3c(c21)CCO3	inactive
COc1ccc(S(=O)(=O)N2c3ccc(Cl)cc3[C@](O)(c3ccccc3Cl)[C@@H]2C(=O)N2CCC[C@H]2C(N)=O)cc1OC	inactive
CS(=O)(=O)NC[C@H]1CC[C@H](Nc2nc3c(s2)CCSc2ccccc2-3)CC1	active
COc1ccccc1N1CCN(CCCCNC(=O)c2ccc3ccccc3c2)CC1	inactive
COC(=O)[C@H]1[C@H]2C[C@H]3c4[nH]c5ccccc5c4CCN3C[C@H]2CC[C@@H]1O	inactive
CN1C2CCC1CC(OC(c1ccc(F)cc1)c1ccc(F)cc1)C2 (stereo unspecified)	inactive
O=C(O)c1cc(-c2ccc(C3CCNCC3)cc2)c2ccc(-c3ccc(C(F)(F)F)cc3)cc2c1	inactive
COc1ccc(OC(F)(F)F)cc1CN[C@H]1CCCN[C@H]1c1ccccc1	inactive
